Where a name gives a salt, the structure may show the parent alone.
Could you please report measured melting point for the items listed next?
Report the value in °C with no unit label.

Item: CCN1C2CCC1CC(N1CCN(C(=O)COCCN(C)S(=O)(=O)c3c(C)cc(OC)cc3C)CC1)C2 (stereo not shown) (as salt: fumarate) [Example 46, difumarate] | melting point: 132

Item: COc1cc(Cl)c(S(=O)(=O)N(C)CCOCC(=O)N2CCC(CCN(C)C)CC2)c(Cl)c1.O=C(O)/C=C/C(=O)O | melting point: 70

Item: COc1cc(Cl)c(S(=O)(=O)N(C)CCOCC(=O)N2CCN(CCCN(C)C)CC2)c(Cl)c1.O=C(O)/C=C/C(=O)O.O=C(O)/C=C/C(=O)O | melting point: 60

Item: COc1cc(C)c(S(=O)(=O)N(CCOCC(=O)N2CCN(CCN3CCCC3)CC2)C2CC2)c(C)c1 (as salt: fumarate) [Example 19, difumarate] | melting point: 141

Item: CCN(CCOCC(=O)N1CCN(C2CCN(C)CC2)CC1)S(=O)(=O)c1c(C)cc(OC)cc1C (as salt: fumarate) [Example 21, difumarate] | melting point: 206

Item: COc1cc(C)c(S(=O)(=O)N(C)CCOCC(=O)N2CCC(CCCN3CCC3)CC2)c(C)c1.O=C(O)/C=C/C(=O)O | melting point: 65

Item: CCN(CC)CCC1CCN(C(=O)COCCN(C)S(=O)(=O)c2c(C)cc(OC)cc2C)CC1.O=C(O)/C=C/C(=O)O | melting point: 60

Item: COc1cc(C)c(S(=O)(=O)N(C)CCOCC(=O)N2CCC(CCCN(C)C)CC2)c(C)c1.O=C(O)/C=C/C(=O)O | melting point: 55

Item: CCN(CCOCC(=O)N1CCN(CCCN(C)C)CC1)S(=O)(=O)c1c(C)cc(OC)cc1C.O=C(O)/C=C/C(=O)O.O=C(O)/C=C/C(=O)O | melting point: 60

Item: COc1cc(C)c(S(=O)(=O)N(C)CCOCC(=O)N2CCN(CCCN3CCC3)CC2)c(C)c1.O=C(O)/C=C/C(=O)O.O=C(O)/C=C/C(=O)O | melting point: 82

Item: COc1cc(C)c(S(=O)(=O)N(CCOCC(=O)N2CCC(CCN3CCCC3)CC2)C2CC2)c(C)c1 (as salt: fumarate) | melting point: 50

Item: COc1cc(C)c(S(=O)(=O)N(C)CCOCC(=O)N2CCC(CCN3CCCC3)CC2)c(C)c1 (as salt: fumarate) | melting point: 55

Item: COc1cc(C)c(S(=O)(=O)N(C)CCOCC(=O)N2CCN(C3CCN(C(C)(C)C)CC3)CC2)c(C)c1 (as salt: fumarate) [Example 32, difumarate] | melting point: 230

###

test target: B1 receptor of bradykinin (Homo sapiens)
Construct: To induce expression of the B1 receptor of bradykinin, the vein segments are allowed to incubate at 37° C; from tissue; host or cells: human umbilical vein rings, endothelium removed, incubated 16 h in EMEM to induce the receptor
Sequence (P46663 1-353): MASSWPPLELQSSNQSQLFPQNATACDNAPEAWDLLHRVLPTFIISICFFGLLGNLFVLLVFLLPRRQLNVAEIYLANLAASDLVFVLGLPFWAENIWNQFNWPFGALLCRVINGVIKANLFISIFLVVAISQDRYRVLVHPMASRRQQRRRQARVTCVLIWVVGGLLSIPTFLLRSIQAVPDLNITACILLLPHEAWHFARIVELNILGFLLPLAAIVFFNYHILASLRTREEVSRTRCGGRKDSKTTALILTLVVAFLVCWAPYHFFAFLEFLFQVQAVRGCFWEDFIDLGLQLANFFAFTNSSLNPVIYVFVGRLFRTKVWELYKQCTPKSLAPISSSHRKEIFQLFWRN
assay method text: human umbilical vein contraction by des-Arg10-Kallidin, antagonism at the B1 receptor of bradykinin
Assay type: cell-based
test conditions: isolated human umbilical vein rings, agonist des-Arg10-Kallidin, pKB=-log KB from EC50 concentration ratio
Counter-ions that a name gives are not always drawn.
quantity kind: Kb (nM)
Report the value in nM with no unit label.

Item: COc1cc(C)c(S(=O)(=O)N(CCOCC(=O)N2CCC(CCN3CCCC3)CC2)C2CC2)c(C)c1 [Example 79, fumarate] | Kb: 7.94

Item: COc1cc(C)c(S(=O)(=O)N(C)CCOCC(=O)N2CCN(CCCN3CCN(C)CC3)CC2)c(C)c1 [Example 45, difumarate] | Kb: 12.6

Item: COc1cc(C)c(S(=O)(=O)N(C)CCOCC(=O)N2CCN(C3CCN(C(C)(C)C)CC3)CC2)c(C)c1 [Example 32, difumarate] | Kb: 0.631

Item: COc1cc(C)c(S(=O)(=O)N(CCOCC(=O)N2CCN(CCN3CCCC3)CC2)C2CC2)c(C)c1 [Example 19, difumarate] | Kb: 31.6

Item: CCN1CCC(C2CCN(C(=O)COCCN(C)S(=O)(=O)c3c(C)cc(OC)cc3C)CC2)CC1 [Example 84, fumarate] | Kb: 0.631

###

Where a name gives a salt, the structure may show the parent alone.
Could you please report measured melting point for the items listed next?
Report the value in °C with no unit label.

Item: COc1cc(C)c(S(=O)(=O)N(C)CCOCC(=O)N2CCN(CCCN3CCN(C)CC3)CC2)c(C)c1 (as salt: fumarate) [Example 45, difumarate] | melting point: 204

Item: COc1cc(C)c(S(=O)(=O)N(C)CCOCC(=O)N2CCC(CN3CCC3)CC2)c(C)c1.O=C(O)/C=C/C(=O)O | melting point: 75

The reported measurements were obtained from patent US7538111B2.
